- Tested on: E. coli mL308 225
- assayName: In Vitro Anti-Bacterial Activity Assay (MIC), gram negative
- Type: cell-based
- testSettings: Escherichia coli, ML308225, 18 h, gram negative bacteria; read-out: Antibiotic Activity Gram − (MIC)
Reported MIC values for the following compounds.

Use these answered entries as a reference point.
What does the record list as MIC for CN(C)c1cc(-c2ccccn2)c2c(c1O)C(=O)C1=C(O)[C@]3(O)C(=O)C(C(N)=O)=C(O)[C@@H](N(C)C)[C@@H]3C[C@@H]1C2 ?
> 4 mg/L

Moving on to CN(C)c1cc(NC2CC(C)(C)NC(C)(C)C2)c(O)c2c1C[C@H]1C[C@H]3[C@H](N(C)C)C(O)=C(C(N)=O)C(=O)[C@@]3(O)C(O)=C1C2=O
> 4 mg/L

# input for lookup
Quick check: MIC of CN(C)[C@@H]1C(O)=C(C(N)=O)C(=O)[C@@]2(O)C(O)=C3C(=O)c4c(O)ccc(CCC(=O)N5CCOCC5)c4C[C@H]3C[C@@H]12 ?
> 4 mg/L

* * *

Below is a list of entries, each paired with its recorded MIC value.
- Test system: E. coli mL308 225
- assayName: In Vitro Anti-Bacterial Activity Assay (MIC), gram negative
- Assay type: cell-based
- testSettings: Escherichia coli, ML308225, 18 h, gram negative bacteria; read-out: Antibiotic Activity Gram − (MIC)

Notebook entry, E. coli mL308 225 assay: MIC of CN(C)[C@@H]1C(O)=C(C(N)=O)C(=O)[C@@]2(O)C(O)=C3C(=O)c4c(O)ccc(C#CCO)c4C[C@H]3C[C@@H]12 = ?
> 4 µg/mL

More entries:
Recall the recorded MIC for CCN(CC)c1ccc(O)c2c1C[C@H]1C[C@H]3[C@H](N(C)C)C(O)=C(C(N)=O)C(=O)[C@@]3(O)C(O)=C1C2=O with E. coli mL308 225 and state it.
< 4 µg/mL

# repeat for CN(C)c1cc(CN2CCCC2C(F)(F)F)c(O)c2c1C[C@H]1C[C@H]3[C@H](N(C)C)C(O)=C(C(N)=O)C(=O)[C@@]3(O)C(O)=C1C2=O (stereo partly drawn)
< 4 µg/mL

* * *

- Test system: E. coli mL308 225
- assayName: In Vitro Anti-Bacterial Activity Assay (MIC), gram negative
- Assay type: cell-based
- testSettings: Escherichia coli, ML308225, 18 h, gram negative bacteria; read-out: Antibiotic Activity Gram − (MIC)
// MIC lookup, one value per entry

// MIC lookup, key: CN(C)c1cc(CNCC(=O)O)c(O)c2c1C[C@H]1C[C@H]3[C@H](N(C)C)C(O)=C(C(N)=O)C(=O)[C@@]3(O)C(O)=C1C2=O
> 4 µg/mL

And then CN(C)c1cc(CNCc2cc(F)c(F)c(F)c2)c(O)c2c1C[C@H]1C[C@H]3[C@H](N(C)C)C(O)=C(C(N)=O)C(=O)[C@@]3(O)C(O)=C1C2=O , what is it?
< 4 µg/mL

Next entry: C#Cc1cc(CNC(=O)N2CCOCC2)c2c(c1O)C(=O)C1=C(O)[C@]3(O)C(=O)C(C(N)=O)=C(O)[C@@H](N(C)C)[C@@H]3C[C@@H]1C2
> 4 µg/mL

Next record, please: CN(C)[C@@H]1C(O)=C(C(N)=O)C(=O)[C@@]2(O)C(O)=C3C(=O)c4c(O)ccc(-c5ccc(F)c(F)c5)c4C[C@H]3C[C@@H]12
< 4 µg/mL

Let us now turn to CN1CCC(N(C)c2ccc3c(c2O)C(=O)C2=C(O)[C@]4(O)C(=O)C(C(N)=O)=C(O)[C@@H](N(C)C)[C@@H]4C[C@@H]2C3)CC1
> 4 µg/mL

---
Could you tell me which MIC is on file for CN(C)[C@@H]1C(O)=C(C(N)=O)C(=O)[C@@]2(O)C(O)=C3C(=O)c4c(ccc(N5CCOCC5)c4O)C[C@H]3C[C@@H]12 ?
> 4 µg/mL

Consider next the compound CC(=O)Cc1cc(I)c2c(c1O)C(=O)C1=C(O)[C@]3(O)C(=O)C(C(N)=O)=C(O)[C@@H](N(C)C)[C@@H]3C[C@@H]1C2 in the same way.
> 4 µg/mL

Now consider CC(C)CN(C=O)Cc1cc(N(C)C)c2c(c1O)C(=O)C1=C(O)[C@]3(O)C(=O)C(C(N)=O)=C(O)[C@@H](N(C)C)[C@@H]3C[C@@H]1C2 and answer again.
> 4 µg/mL

Now try CC(C)Cc1ccc(O)c2c1C[C@H]1C[C@H]3[C@H](N(C)C)C(O)=C(C(N)=O)C(=O)[C@@]3(O)C(O)=C1C2=O .
< 4 µg/mL

Please give the result for Cc1cc(CNCc2cc(N(C)C)c3c(c2O)C(=O)C2=C(O)[C@]4(O)C(=O)C(C(N)=O)=C(O)[C@@H](N(C)C)[C@@H]4C[C@@H]2C3)c(C(F)(F)F)o1 too.
< 4 µg/mL

Try this compound too: CN(C)[C@@H]1C(O)=C(C(N)=O)C(=O)[C@@]2(O)C(O)=C3C(=O)c4c(O)ccc(-c5ccccc5)c4C[C@H]3C[C@@H]12
< 4 µg/mL

Check CN(C)c1cc(CNCCC(F)(F)F)c(O)c2c1C[C@H]1C[C@H]3[C@H](N(C)C)C(O)=C(C(N)=O)C(=O)[C@@]3(O)C(O)=C1C2=O [drawing 3671] too.
< 4 µg/mL

Now this one: CN(C)c1cc(CN2C3CCC2CC3)c(O)c2c1C[C@H]1C[C@H]3[C@H](N(C)C)C(O)=C(C(N)=O)C(=O)[C@@]3(O)C(O)=C1C2=O
> 4 µg/mL

meta.source: patent US20150141381A1
